- Test system: Escherichia coli TOP10
- protocolText: shrunken log2 fold change of peptide-encoding DNA abundance (4.5 h post-induction vs induction); higher = less antimicrobial activity (less host growth inhibition)
- statedConditions: time post-induction: 4.5 h; library: site-saturation at positions 5, 18, 19, 20
parameter: shrunken log2 fold change
Just the number, please, no unit after it.

-- ask Fill in the recorded shrunken log2 fold change for this sequence, with Escherichia coli TOP10 as test system: `RRIRMRPPRLPRPRPRPIPRPRP`
-- reply 0.634

-- ask Fill in the recorded shrunken log2 fold change for this sequence, with Escherichia coli TOP10 as test system: `RRIRNRPPRLPRPRPRPPLWPRP`
-- reply 0.539

-- ask Fill in the recorded shrunken log2 fold change for this sequence, with Escherichia coli TOP10 as test system: `RRIRRRPPRLPRPRPRPVHKPRP`
-- reply 0.092

-- ask Fill in the recorded shrunken log2 fold change for this sequence, with Escherichia coli TOP10 as test system: `RRIRRRPPRLPRPRPRPVHGPRP`
-- reply 0.335

-- ask Fill in the recorded shrunken log2 fold change for this sequence, with Escherichia coli TOP10 as test system: `RRIRERPPRLPRPRPRPQNAPRP`
-- reply 0.0619

-- ask Fill in the recorded shrunken log2 fold change for this sequence, with Escherichia coli TOP10 as test system: `RRIRIRPPRLPRPRPRPNELPRP`
-- reply -0.056

-- ask Fill in the recorded shrunken log2 fold change for this sequence, with Escherichia coli TOP10 as test system: `RRIRDRPPRLPRPRPRPMMLPRP`
-- reply -0.0234

-- ask Fill in the recorded shrunken log2 fold change for this sequence, with Escherichia coli TOP10 as test system: `RRIRSRPPRLPRPRPRPICIPRP`
-- reply -0.494

----------
- Tested on: Escherichia coli TOP10;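 further: peptides expressed intracellularly from a pBAD plasmid library in pooled LB shake-flask culture, induced with 0.3% L-arabinose, DNA abundance read by NGS, three biological replicates, DESeq2 with apeglm shrinkage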
- protocolText: shrunken log2 fold change of peptide-encoding DNA abundance (4.5 h post-induction vs induction); higher = less antimicrobial activity (less host growth inhibition)
- statedConditions: time post-induction: 4.5 h; library: site-saturation at positions 5, 18, 19, 20
parameter: shrunken log2 fold change
Just the number, please, no unit after it.

-- ask // query shrunken log2 fold change value for entry `RRIRTRPPRLPRPRPRPRPSPRP`
-- reply 0.703

-- ask // query shrunken log2 fold change value for entry `RRIRERPPRLPRPRPRPSTAPRP`
-- reply -0.151

-- ask // query shrunken log2 fold change value for entry `RRIRCRPPRLPRPRPRPPMLPRP`
-- reply 0.0982

-- ask // query shrunken log2 fold change value for entry `RRIRERPPRLPRPRPRPDVGPRP`
-- reply -0.59

-- ask // query shrunken log2 fold change value for entry `RRIRARPPRLPRPRPRPWSNPRP`
-- reply 0.0711

-- ask // query shrunken log2 fold change value for entry `RRIRARPPRLPRPRPRPTMGPRP`
-- reply 0.469

-- ask // query shrunken log2 fold change value for entry `RRIRNRPPRLPRPRPRPYKTPRP`
-- reply -0.0391

-- ask // query shrunken log2 fold change value for entry `RRIRPRPPRLPRPRPRPRDIPRP`
-- reply -0.191

-- ask // query shrunken log2 fold change value for entry `RRIRYRPPRLPRPRPRPNKFPRP`
-- reply -0.546

-- ask // query shrunken log2 fold change value for entry `RRIRERPPRLPRPRPRPRMIPRP`
-- reply -0.0503

-- ask // query shrunken log2 fold change value for entry `RRIRIRPPRLPRPRPRPPCEPRP`
-- reply 0.00219

-- ask // query shrunken log2 fold change value for entry `RRIRTRPPRLPRPRPRPFSSPRP`
-- reply -0.399

-- ask // query shrunken log2 fold change value for entry `RRIRSRPPRLPRPRPRPICVPRP`
-- reply -0.111

-- ask // query shrunken log2 fold change value for entry `RRIRFRPPRLPRPRPRPRYRPRP`
-- reply -0.4

-- ask // query shrunken log2 fold change value for entry `RRIRARPPRLPRPRPRPNNGPRP`
-- reply 0.00213
